Species on record: Homo sapiens
Assay: To identify inhibition of the IFN signalling (Jak-Stat) pathway via expression of an eGFP reporter gene under the control of an IFN-stimulated response element (ISRE) containing MxA promoter.
Type: functional
Design: scale not given: direction of the effect not stated beside the values
Settings: 30 µM
Exercise: state measured Percent Effect for each of the compounds provided.
Give bare numbers, in %.

These solved cases illustrate the format of a correct answer.
> print(dat)
                                   compound  readout.value
1  CC(O)CN1CCC(CNCc2cccc(OC(C)C)c2)CC1 (centres undefined)           9.15
2  c1ccc(Cc2noc(CNC3CCc4ncnn4C3)n2)cc1 (centres undefined)           1.98
3  CN(Cc1ccccc1Br)C(=O)Cn1nc(-c2ccc(F)cc2)oc1=O             10

Kindly give each listed record's Percent Effect.
1. Cc1cccnc1C(=O)N1CCCCC1c1[nH]ncc1S(C)(=O)=O (centres undefined)
2. O=C(NCN1CCc2ccccc2C1)c1cnccn1
3. O=C1CN(Cc2ccc(-c3ccccc3C(=O)O)cc2)CCN1
4. Cc1nn(-c2ccccc2)cc1C(=O)N1CCCN2CCCC2C1 (centres undefined)
5. COc1cccc(-n2nnc(C(=O)N3CCCC3)c2C)c1

1: 0.716; 2: 0.709; 3: 27.5; 4: 3.25; 5: 6.63

###

Exercise: state measured Percent Effect for each of the compounds provided.
Target: Ubiquitin-activating enzyme e1, putative (Leishmania donovani (strain BPK282A1)) (UniProt E9BSI1)
Sequence (E9BSI1 as listed by the source): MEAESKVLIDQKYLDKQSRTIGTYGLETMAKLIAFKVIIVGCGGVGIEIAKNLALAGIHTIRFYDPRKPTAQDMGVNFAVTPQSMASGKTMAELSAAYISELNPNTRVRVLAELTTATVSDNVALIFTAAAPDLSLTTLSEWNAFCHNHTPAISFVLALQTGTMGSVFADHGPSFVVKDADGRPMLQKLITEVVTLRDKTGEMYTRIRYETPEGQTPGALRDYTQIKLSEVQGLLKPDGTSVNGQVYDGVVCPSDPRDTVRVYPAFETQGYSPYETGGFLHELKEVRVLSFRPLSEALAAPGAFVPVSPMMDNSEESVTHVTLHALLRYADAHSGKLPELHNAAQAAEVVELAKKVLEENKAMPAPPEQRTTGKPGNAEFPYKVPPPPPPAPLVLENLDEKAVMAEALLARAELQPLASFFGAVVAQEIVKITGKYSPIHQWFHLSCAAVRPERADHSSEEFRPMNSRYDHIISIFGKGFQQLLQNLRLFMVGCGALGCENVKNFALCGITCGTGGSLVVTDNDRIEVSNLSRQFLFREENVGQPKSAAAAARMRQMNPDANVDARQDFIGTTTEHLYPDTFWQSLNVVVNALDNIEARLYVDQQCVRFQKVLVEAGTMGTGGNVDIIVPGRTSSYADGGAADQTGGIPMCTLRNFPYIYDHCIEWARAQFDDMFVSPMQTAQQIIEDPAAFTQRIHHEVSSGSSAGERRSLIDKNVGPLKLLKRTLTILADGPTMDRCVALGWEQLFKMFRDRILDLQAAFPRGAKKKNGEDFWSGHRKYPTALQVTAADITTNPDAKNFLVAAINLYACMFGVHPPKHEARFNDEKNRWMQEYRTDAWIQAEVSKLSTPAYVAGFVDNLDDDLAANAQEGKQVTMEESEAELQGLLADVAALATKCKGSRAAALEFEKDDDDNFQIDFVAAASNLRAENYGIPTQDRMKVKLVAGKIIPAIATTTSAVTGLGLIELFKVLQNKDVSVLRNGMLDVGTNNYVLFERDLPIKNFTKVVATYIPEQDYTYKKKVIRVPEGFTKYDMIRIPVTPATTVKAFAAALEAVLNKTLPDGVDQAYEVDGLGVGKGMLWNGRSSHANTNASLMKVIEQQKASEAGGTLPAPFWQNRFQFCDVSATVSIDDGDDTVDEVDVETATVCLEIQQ
Test: Leishmania donovani Ubiquitin Activating Enzyme (LdE1)
Format: functional
Design: scale not given: direction of the effect not stated beside the values
Conditions: 30 µM
Measured potencies and affinities stand elsewhere.
Just the number plus its unit, please.

Kindly give each listed record's Percent Effect.
1. COc1cccc(CNC(=O)N2CCN(Cc3cc(C)on3)CC2)c1
2. COc1ccc2c(c1)OCC(CNC(=O)c1ccc(=O)n(C)c1)C2 (stereo not drawn)
3. Cc1ccc(S(=O)(=O)N2C[C@@H]3C[C@@H](NC(=O)C(C)(C)C)[C@@H]3C2)cc1
4. COc1c(C2CCCN2CC(=O)Nc2cc(C)no2)c(C)nn1C (stereo not drawn)
5. Cc1cccc(CN2C[C@@H]3CN(C(=O)[C@H]4CCCO4)C[C@@H]3C2=O)c1
6. CS(=O)(=O)NC[C@]12COC[C@H]1CN(C(=O)c1ccoc1)C2

["15.2%", "-2.7%", "14.9%", "13.5%", "24.7%", "7.79%"]

Kindly give each listed record's Percent Effect.
1. COCC(=O)N1CCC2(CC1)CC(CC(=O)NC1CC1)c1ccccc12 (stereo not drawn)
2. COCC(c1cccc(C(F)(F)F)c1)N(C)C(=O)c1cc(C)no1 (stereo not drawn)
3. CCNc1cc2c(nn1)CCN(C(=O)Cc1c(C)noc1C)C2
4. COc1ccc(C2CC(=O)Oc3cc(C)[nH]c(=O)c32)cc1 (stereo not drawn)
5. CN(C)CC1(O)CCN(S(=O)(=O)c2ccc(F)c(F)c2)C1 (stereo not drawn)
6. Cc1ccn(-c2ccccc2NCc2ccccn2)n1

["-1.3%", "13.2%", "7.89%", "6.67%", "23%", "0%"]

Kindly give each listed record's Percent Effect.
1. CN(Cc1ccccn1)C1COC2(CCN(Cc3cccnc3)CC2)C1 (stereo not drawn)
2. CCCc1n[nH]c(C2CN(CCn3cccn3)CCO2)n1 (stereo not drawn)
3. CCCc1c(C(=O)NC2CCCC2)nnn1-c1ccc(OC)cc1
4. CCN(CC1CCOC1)C(=O)Nc1ccc(-n2cncn2)nc1 (stereo not drawn)
5. Cc1ccc(N2CCCN(C(=O)c3c(C)oc(C)c3C)CC2)nn1
6. Cc1[nH]c(=O)c(C#N)cc1C(=O)N1C[C@@H](CN2CCCC2)C[C@H](CO)C1
7. CCS(=O)(=O)N1C[C@@H](OCc2cccnc2)[C@H]2OCCC[C@H]21

1. 16%
2. -4.17%
3. 17.3%
4. 5.13%
5. 18.7%
6. -8.11%
7. 1.3%

Kindly give each listed record's Percent Effect.
1. COCCn1cc(C(=O)N2CCCC2c2cc(C)no2)ccc1=O (stereo not drawn)
2. CCn1ccnc1CNCC1CCCN1c1cccnn1 (stereo not drawn)

1. 8.11%
2. 2.67%

Kindly give each listed record's Percent Effect.
1. CC(C)NC(=O)N1CCN(Cc2ccccn2)CC2(CC(=O)N(C)C2)C1 (stereo not drawn)
2. CCn1cc(CN(C)S(=O)(=O)c2cc(Cl)ccc2Cl)cn1

11.7%
14.7%

###

Biological target: Sialic acid-binding Ig-like lectin 9 (Homo sapiens) (UniProt Q9Y336)
Sequence (Q9Y336 whole entry): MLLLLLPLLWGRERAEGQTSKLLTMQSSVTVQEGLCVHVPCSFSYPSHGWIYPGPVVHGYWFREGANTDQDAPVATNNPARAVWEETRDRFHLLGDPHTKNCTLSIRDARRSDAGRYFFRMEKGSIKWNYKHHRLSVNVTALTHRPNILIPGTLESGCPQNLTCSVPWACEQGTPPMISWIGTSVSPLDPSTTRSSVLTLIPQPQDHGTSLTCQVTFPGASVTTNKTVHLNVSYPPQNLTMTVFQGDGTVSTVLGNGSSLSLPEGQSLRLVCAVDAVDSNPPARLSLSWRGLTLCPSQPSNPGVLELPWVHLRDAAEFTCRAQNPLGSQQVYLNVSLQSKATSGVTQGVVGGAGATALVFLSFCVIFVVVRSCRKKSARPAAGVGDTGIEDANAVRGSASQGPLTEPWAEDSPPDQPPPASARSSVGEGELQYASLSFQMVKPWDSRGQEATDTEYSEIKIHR
Test: Hs-Siglec9 ALPHAscreen SOP 20170721
Design: scale not given: direction of the effect not stated beside the values
Details: 10 µM
MEASURED ATTRIBUTE: Percent Effect (%)
Give bare numbers, in %.

> print(dat)
                                   compound  measured.attribute  readout.value
1  Cc1nc2ccccn2c1CN(Cc1cccnc1)CC1CCCO1 (stereo unspecified)      Percent Effect          0.744
2  NC(=O)c1ccc(CN2CCCC(N3CCCC3)C2)cc1 (stereo unspecified)      Percent Effect         -0.296

Kindly give each listed record's Percent Effect.
1. O=S(=O)(C1CC1)N1CCOCC2(CCN(c3ccccn3)C2)C1 (stereo unspecified)
2. c1ccc(CN2CCc3nnc(CN4CCCCC4)n3CC2)nc1
3. CN1CC(=O)N(c2ccsc2)CC12CCN(C(=O)c1ccccc1)C2 (stereo unspecified)
4. CC(NC1(CNC(=O)CC(C)(C)C)CCOCC1)c1ccccc1 (stereo unspecified)
5. CC(=O)NCc1ccc(C(=O)N2CCCCC2Cn2cccn2)o1 (stereo unspecified)
6. CS(=O)(=O)c1ccccc1C(=O)NCCCN1CCc2ccccc2C1

1. -7.58
2. -4.58
3. -6.87
4. 15.6
5. -5
6. 2.07

Kindly give each listed record's Percent Effect.
1. O=C(c1ccoc1)N1CC[C@@H]2[C@H]1CCC(=O)N2c1ccccc1
2. Cc1nnc2n1CCN(C(C(=O)NC1CC1)c1ccccc1)C2 (stereo unspecified)
3. O=S(=O)(C1CC1)N1C[C@H]2CCC[C@@]2(COc2ccccn2)C1
4. COCC1CN(Cc2ccsc2)Cc2nn(C)cc21 (stereo unspecified)

1. -2.97
2. 6.36
3. 3.09
4. -3.38

Kindly give each listed record's Percent Effect.
1. Cc1cc(CNc2ccc(C(=O)N3CCCC(C)C3)cc2C)no1 (stereo unspecified)
2. CCCOCCCNc1nccc(-c2cn(C)nc2C)n1
3. CC(=O)NC(C)c1ccc(OCC2CC2)c(F)c1 (stereo unspecified)
4. CC(Cn1cccn1)NC(=O)CCc1ccc(S(N)(=O)=O)cc1 (stereo unspecified)
5. CSc1ccccc1C(C(=O)O)N1CCN(Cc2ccccn2)CC1 (stereo unspecified)
6. CN(CC(F)(F)F)C(=O)C1CSCN1C(=O)OC(C)(C)C (stereo unspecified)

1: -5.45; 2: 9.13; 3: 5; 4: 3.31; 5: 6.14; 6: -3.23

###

Target: Tyrosyl-tRNA synthetase, putative (Trypanosoma cruzi (strain CL Brener))
Sequence (whole entry): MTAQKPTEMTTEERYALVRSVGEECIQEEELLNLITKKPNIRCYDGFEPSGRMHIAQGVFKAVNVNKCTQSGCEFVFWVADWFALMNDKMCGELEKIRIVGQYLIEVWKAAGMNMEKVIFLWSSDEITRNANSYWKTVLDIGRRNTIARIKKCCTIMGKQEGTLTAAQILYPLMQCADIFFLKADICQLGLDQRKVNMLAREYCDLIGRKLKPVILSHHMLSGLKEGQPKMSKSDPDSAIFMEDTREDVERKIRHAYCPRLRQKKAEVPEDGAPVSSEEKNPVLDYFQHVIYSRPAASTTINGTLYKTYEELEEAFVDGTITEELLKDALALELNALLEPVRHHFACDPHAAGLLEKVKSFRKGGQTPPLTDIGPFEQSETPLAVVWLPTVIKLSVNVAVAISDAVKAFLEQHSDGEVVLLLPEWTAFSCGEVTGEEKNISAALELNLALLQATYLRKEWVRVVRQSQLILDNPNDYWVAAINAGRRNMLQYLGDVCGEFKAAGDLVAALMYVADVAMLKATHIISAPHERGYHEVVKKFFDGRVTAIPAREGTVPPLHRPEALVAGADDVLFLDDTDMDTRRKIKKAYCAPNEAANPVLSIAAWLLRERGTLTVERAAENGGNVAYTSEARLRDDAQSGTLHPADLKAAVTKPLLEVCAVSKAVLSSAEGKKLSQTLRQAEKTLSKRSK
Experiment: Trypanosoma cruzi tyrosyl tRNA synthetase (TcYRS) _High Tyrosine SOP; also: in the data most compounds retested in dose-response had high values
Type: functional
Set-up: scale not given: direction of the effect not stated beside the values
Settings: 30 µM
Exercise: state measured Percent Effect for each of the compounds provided.
Answers are plain numbers, in %.

These solved cases illustrate the format of a correct answer.
> print(dat)
                                   compound  readout.value
1  COc1ccc(C(C)NC(=O)NCCCn2cncn2)cc1F (stereo not drawn)           6.84
2  Cc1ccc2oc(C(=O)N3CCCC(c4noc(C)n4)C3)cc2n1 (stereo not drawn)           4.31

Kindly give each listed record's Percent Effect.
1. O=C(c1ccc(F)cc1F)N1CC[C@H](O)[C@@H](N2CCOCC2)CC1
2. CN(C)S(=O)(=O)N1C[C@@H](Oc2ccccn2)[C@H]2OCCC[C@H]21
3. CO[C@H]1CCN(c2ncccn2)[C@H]1Cc1ccccc1

2.12
-4.23
5.38
